assay: protease stability score; higher = more stable; yeast display proteolysis, trypsin and chymotrypsin;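 note: log10 excess protease needed over predicted unfolded state with 0 meaning unfolded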
READOUT TYPE: protease stability score
Answers are plain numbers.

# annotated cases, reported protease stability score shown
DDQQKAKTHVRQVRDAATSNDPDEMRRLADENARFVVGDKEYEGRDQVRELVERERDNVDQVEIRLTDVEKRGDRLRLEVRVVWNHNGSHDHKILDMIVQNHNGTLRFVQLQQR | 0.366
DDEANTVFREQLHQLEEGNHKEVAKNFDPNVRVSVGDRSIHGSEEVNTRIRRQAHESRIQVDHMSDDNSNGRVTMSADQVVNENGKPSTHRYKLTARVHNGKVKSMVITRDG | -0.575

For the 4 sequences below, give their protease stability score values.
1. DTHDVKRILDELKTNDEDMNRHLVDPNAKLRIGDKEIHGREELTEFYHRFHKQVDSQRIKDVRVHGNRFRVEFEAVFNGQTVEASYEATFHNGKATSLRYTATSNEELKNLQKVMD
2. EKEDLQQIARDMAKAVVSGDKEQMRRLADENARAQIGDKTLHGREKLSELIKRIRDRVDHLRLVDVRQDGDQIQVYVDLVVNGRKRRFTIEAEAHNGHIHSVTFDPRAKEFLDS
3. DEEAHKLATKWLRAVQTGDPDTVKELVDPNVRAVYGDQEITGRERLADEIKKTRDHSRVELESVRVTVHGDKVRAQADVRVNTNGKPERNTVDVTIVIHNGRIKRMHMQKSQ
4. DEELERQFHEFLKALETNDPHRMRQLVDPNARIRVGDKRYHGMEEYAKDVVKKMEEARVSIDIKSIEVQGNHFVVEHEITRDQNGKPKTHRQRMFFTVKNGKVKEMQIEDQK

[reply]
1. 0.147
2. 1.79
3. 0.7
4. 0.596
